assayed_target: T1, apical domain of cynomolgus CD71 (cynomolgus, UniProt A0A2K5X958 189-383)
T1 construct: domain: apical domain; also called Cyno apical domain
T1 sequence (A0A2K5X958 entry or part of it): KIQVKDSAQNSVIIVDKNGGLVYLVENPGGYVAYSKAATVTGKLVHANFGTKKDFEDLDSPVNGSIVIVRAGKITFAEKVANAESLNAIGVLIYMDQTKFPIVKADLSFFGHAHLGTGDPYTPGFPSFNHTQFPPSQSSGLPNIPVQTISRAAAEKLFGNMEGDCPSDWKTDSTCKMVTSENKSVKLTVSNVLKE
procedure_text: primary ELISA; further: test concentration or dose not given here
endpoint_name: RLU (RLU)

CD71-binding FN3 domain of SEQ ID NO: 172 (designed binder) MSRPAPKNLVVSRVTEDSARLSWTAPGAAFDSFEIAYFERTWFGEAIVLTVPSSERSYDLTGLKPGTEYWVQIGGVKGGDWSKPLSAIFTT	5.23e+06
CD71-binding FN3 domain of SEQ ID NO: 214 (designed binder) MSLPAPKNLVVSRVTEDSARLSWTAPDAAFDSFEIDYGEYSQAGEAIGLLVPGSERSYDLTGLKPGTEYWVQIGGVKGGNWSAPLSAIFTT	4.2e+06
CD71-binding FN3 domain of SEQ ID NO: 215 (designed binder) MSLPAPKNLVVSRVTEDSARLSWTAPDAAFDSLEIGYFENLYLGEAIVLTVPGSERSYDLTGLKPGTEYWVQIGGVKGGNWSAPLSAIFTT	4.95e+06
CD71-binding FN3 domain of SEQ ID NO: 144 (designed binder) MSLPAPKNLVVSRVTEDSARLSWTAPDAAFDSFEIGYFENLYLGEAIVLTVPGSERSYDLTSLKPGTEYWVQIGGVKGGNWSAPLSATFTT	5.3e+06
CD71-binding FN3 domain of SEQ ID NO: 208 (designed binder) MSLPAPKNLVVSRVTEDSARLSWTAPDAAFDSFFIGYFENLYLGEAIVLTVPGSERSYDLTGLKPGTEYWVQIGGVKGGNWSAPLSAIFTT	5.45e+06
CD71-binding FN3 domain of SEQ ID NO: 209 (designed binder) MSLPAPKNLVVSRVTEDSARLSWTAPDAAFDSFEIAYFERTWFGEAIVLTVPGSERSYDLTGLKPGTEYWVQIGGVKGGDWSRPLSAIFTT	5.07e+06
CD71-binding FN3 domain of SEQ ID NO: 183 (designed binder) MSLPAPKNLVISRVTEDSARLSWTAPDAAFDSFEIVYAEPVRFGEAIVLTVPGSERSYDLTGLKPGTEYWVQIGGVKGGEWSSPLSAIFTT	4.47e+06
CD71-binding FN3 domain of SEQ ID NO: 128 (designed binder) MSSLPAPKNLVVSRVTEDSARLSWTAPDAAFDSFEIGYFENLYLGEAIVLTVPGSERSYDLTGLKPGTEYWVQIGGVKGGNWSAPLSAIFTT	5.56e+06
CD71-binding FN3 domain of SEQ ID NO: 152 (designed binder) MSLPAPKNLVVSRVTEDSARLSWTAPDAAFDSFDIGYFEATYYGEAIVLTVPGSERSYDLTGLKPGTEYWVQIGGVKGGNWSAPLSAIFTT	4.21e+06

This collection of values is drawn from patent US20260151494A1.
